Test system: NF54^WT parasites
test: microbe, parasite or virus in culture
Type: cell-based, Plasmodium falciparum
setup_conditions: read-out: IC50 values
value_type: IC50 (nM)
Output spec: scalar in nM, unitless text.

So, CCNCc1cc(Nc2ccnc3cc(Cl)ccc23)ccc1O [Monodesethyl‐amodiaquine] ? Its IC50 was 5.7

---

# key: entry, value: pIC50
System: NF54^G358S-1 parasites
test: P. falciparum proliferation assay (72 h, flow cytometry, SYBR Green I/MitoTracker)
Assay type: cell-based, Plasmodium falciparum
setup_conditions: Plasmodium falciparum, NF54, NF54G358S-1 parasites; individual experiments; read-out: IC50 values
Kindly note that pIC50 refers to -log10 of the concentration in mol/L and answer with the value alone.

CCCCN(CCCC)CC(O)c1cc(Cl)cc2c1-c1ccc(Cl)cc1/C2=C/c1ccc(Cl)cc1 (stereo not shown) : 7.32

Entry COc1ccc2nc3cc(Cl)ccc3c(Nc3cc(CN4CCCC4)c(O)c(CN4CCCC4)c3)c2n1 ; assay system NF54^G358S-1 parasites; pIC50 recorded at 8.91

Entry COc1nc(C(C)C)ccc1-c1cnc2sc(N3CCC(O)(CN)CC3)nn12 ; assay system NF54^G358S-1 parasites; pIC50 recorded at 9.04

Entry Clc1ccc2c(N3CCN(CCCN4CCN(c5ccnc6cc(Cl)ccc56)CC4)CC3)ccnc2c1 ; assay system NF54^G358S-1 parasites; pIC50 recorded at 7.68
